# MEASUREMENT NOTES: The drug is tested on Z-007 corresponding to rat gut metagenome with ENA study accession number: PRJEB37062 and ENA sample accession number: ERS12561807 for biotransformation under anaerobic condition. The drug concentrations were measured over 9 timepoints collected between 0 and 24 hours of incubation by liquid-chromatography-coupled mass spectrometry (LC–MS); also: call rule not given here
# EXPERIMENTAL SETUP: 2 µM
ENDPOINT NAME: Bacterial Biotransformation

[[record]]
compound = "CC(=O)OCC(CCn1cnc2cnc(N)nc21)COC(C)=O [FAMCICLOVIR]"
endpoint_name = "Bacterial Biotransformation"
meas_value = "Compound metabolized"

[[record]]
compound = "CCc1oc2ccccc2c1C(=O)c1cc(Br)c(O)c(Br)c1 [BENZBROMARONE]"
endpoint_name = "Bacterial Biotransformation"
meas_value = "Compound NOT metabolized"

[[record]]
compound = "Br.COc1ccc2c(c1)[C@]13CCCC[C@@H]1[C@H](C2)N(C)CC3.O [DEXTROMETHORPHAN HYDROBROMIDE]"
endpoint_name = "Bacterial Biotransformation"
meas_value = "Compound NOT metabolized"

[[record]]
compound = "C[C@]12C=CC(=O)C=C1CC[C@@H]1[C@@H]2C(=O)C[C@@]2(C)[C@H]1CC[C@]2(O)C(=O)CO [PREDNISONE]"
endpoint_name = "Bacterial Biotransformation"
meas_value = "Compound NOT metabolized"

[[record]]
compound = "CC(=O)O[C@]1(C(C)=O)CC[C@H]2[C@@H]3C=C(C)C4=CC(=O)CC[C@]4(C)[C@H]3CC[C@@]21C [MEGESTROL ACETATE]"
endpoint_name = "Bacterial Biotransformation"
meas_value = "Compound metabolized"


[in] # Bacterial Biotransformation lookup, item COc1cc(NC(C)CCCN)c2ncccc2c1.O=P(O)(O)O.O=P(O)(O)O (stereo not given) [PRIMAQUINE PHOSPHATE]
[out] Compound NOT metabolized

[in] Here is the next compound: CCN(CC)C(=O)C1(c2ccccc2)CC1CN (stereo not given)
[out] Compound NOT metabolized

[in] Here is the next compound: C[C@@H](c1ncncc1F)[C@](O)(Cn1cncn1)c1ccc(F)cc1F [VORICONAZOLE]
[out] Compound NOT metabolized

[in] Here is the next compound: CC(=O)SCC(Cc1ccccc1)C(=O)NCC(=O)OCc1ccccc1 (stereo not given) [RACECADOTRIL]
[out] Compound metabolized

[in] Here is the next compound: CN[C@H]1CC[C@@H](c2ccc(Cl)c(Cl)c2)c2ccccc21 [SERTRALINE]
[out] Compound NOT metabolized

====

# MEASUREMENT NOTES: The drug is tested on WLS-240 corresponding to human gut metagenome with ENA study accession number: PRJEB37062 and ENA sample accession number: ERS12561773 for biotransformation under anaerobic condition. The drug concentrations were measured over 9 timepoints collected between 0 and 24 hours of incubation by liquid-chromatography-coupled mass spectrometry (LC–MS)
# EXPERIMENTAL SETUP: 2 µM
ENDPOINT NAME: Bacterial Biotransformation

[[record]]
compound = "CSc1ccc2c(c1)C(N1CCN(C)CC1)Cc1ccccc1S2.O=C(O)/C=C\\C(=O)O (stereo unspecified)"
endpoint_name = "Bacterial Biotransformation"
meas_value = "Compound NOT metabolized"

[[record]]
compound = "CCOC(=O)[C@H](CCc1ccccc1)N[C@@H](C)C(=O)N1CCC[C@H]1C(=O)O.O=C(O)/C=C\\C(=O)O [ENALAPRIL MALEATE]"
endpoint_name = "Bacterial Biotransformation"
meas_value = "Compound NOT metabolized"

[[record]]
compound = "Cc1ccccc1C(OCCN(C)C)c1ccccc1.O=C(O)CC(O)(CC(=O)O)C(=O)O (stereo unspecified) [ORPHENADRINE CITRATE]"
endpoint_name = "Bacterial Biotransformation"
meas_value = "Compound NOT metabolized"

[[record]]
compound = "C[N+]12CCC(CC1)C(OC(=O)C(O)(c1ccccc1)c1ccccc1)C2.[Br-] (stereo unspecified) [CLIDINIUM BROMIDE]"
endpoint_name = "Bacterial Biotransformation"
meas_value = "Compound metabolized"

[[record]]
compound = "CCN(CC)CCOC(=O)C1(C2CCCCC2)CCCCC1 [DICYCLOMINE]"
endpoint_name = "Bacterial Biotransformation"
meas_value = "Compound NOT metabolized"


[in] # Bacterial Biotransformation lookup, item COc1ccc2cc([C@H](C)C(=O)O)ccc2c1 [NAPROXEN]
[out] Compound metabolized

[in] Here is the next compound: CC(C)c1nc(N(C)S(C)(=O)=O)nc(-c2ccc(F)cc2)c1/C=C/[C@@H](O)C[C@@H](O)CC(=O)[O-].CC(C)c1nc(N(C)S(C)(=O)=O)nc(-c2ccc(F)cc2)c1/C=C/[C@@H](O)C[C@@H](O)CC(=O)[O-].[Ca+2] [ROSUVASTATIN CALCIUM]
[out] Compound metabolized

[in] Here is the next compound: CC(CCc1ccccc1)NCC(O)c1ccc(O)c(C(N)=O)c1 (stereo unspecified) [LABETALOL]
[out] Compound metabolized

[in] Here is the next compound: N#Cc1ccc2c(c1)N(CCCN1CCC(O)CC1)c1ccccc1S2 [PERICIAZINE]
[out] Compound metabolized

[in] Here is the next compound: CC(=O)O[C@]1(C(C)=O)CC[C@H]2[C@@H]3C=C(C)C4=CC(=O)CC[C@]4(C)[C@H]3CC[C@@]21C [MEGESTROL ACETATE]
[out] Compound metabolized
